# LC50, MW listing for each entry below
Test system: Maize weevil [Sitophilus Zeamais (Motschulsky)]
ASSAY: Maize weevil insecticidal test
Type: in vivo
EXPERIMENTAL PARAMETERS: adult weevils, percent in solution; 48 hours

MOLECULE: CC(C)C(=Nc1ccc(OC(F)(F)F)cc1)OCc1ccc(F)c(Oc2ccccc2)c1 [Compound 338]
LC50, MW: 0.0053%
//
MOLECULE: CC(C)C(=Nc1ccc(C#N)cc1)OCc1ccc(F)c(Oc2ccc(F)cc2)c1 [Compound 394]
LC50, MW: > 0.01%
//
MOLECULE: CC(C)C(=Nc1ccc(F)c(Cl)c1)OCc1cccc(Oc2ccc(F)c(F)c2)c1 [Compound 217]
LC50, MW: 0.0084%
//
MOLECULE: CC(C)C(=Nc1ccc(C(F)(F)F)cc1)OCc1cccc(Oc2ccc(Cl)cc2)n1 [Compound 530]
LC50, MW: > 0.01%
//
MOLECULE: CC(C)C(=Nc1ccc(F)c(I)c1)OCc1cccc(Oc2ccc(F)cc2)c1 [Compound 449]
LC50, MW: 0.0075%
//
MOLECULE: CC(C)C(=Nc1ccc(Cl)c(C(F)(F)F)c1)OCc1cccc(Oc2ccc(F)cc2)c1 [Compound 193]
LC50, MW: > 0.01%
//
MOLECULE: CCC(C)C(=Nc1ccc(F)c(Cl)c1)OCc1cccc(Oc2ccc(F)cc2)c1 (centres unmarked) [Compound 210]
LC50, MW: > 0.01%
//
MOLECULE: CC(C)C(=Nc1cccc(C(F)(F)F)c1)OCc1cc(Oc2ccc(F)cc2)ccn1 [Compound 528]
LC50, MW: > 0.01%
//
MOLECULE: CC1(C(=Nc2ccc(Cl)cc2)OCc2cccc(Oc3ccccc3)c2)CC1 [Compound 5]
LC50, MW: > 0.01%
//
MOLECULE: CC(C)C(=Nc1ccc(Cl)cc1)OCc1ccc(F)c(Oc2ccc(Cl)cc2)c1 [Compound 391]
LC50, MW: > 0.01%
//
MOLECULE: CC(C)C(=Nc1ccc(F)cc1F)OCc1cccc(Oc2ccc(F)cc2)c1 [Compound 209]
LC50, MW: > 0.01%
//
MOLECULE: CC(C)C(=Nc1ccc(F)c(Cl)c1)OCc1cccc(Oc2ccc(F)cc2)c1 [Compound 89]
LC50, MW: 0.005%
//
MOLECULE: CC(C)C(=Nc1ccc(C(F)(F)F)cc1[N+](=O)[O-])OCc1ccc(F)c(Oc2ccccc2)c1 [Compound 445]
LC50, MW: > 0.01%
//
MOLECULE: CSc1ccc(Oc2cccc(COC(=Nc3ccc(F)c(Cl)c3)C(C)C)c2)cc1 [Compound 256]
LC50, MW: > 0.01%
//
MOLECULE: CC(C)C(=Nc1ccc(F)c(Cl)c1)OCc1cccc(Oc2c(F)c(F)c(F)c(F)c2F)c1 [Compound 460]
LC50, MW: > 0.01%
//
MOLECULE: C=C(C)C(=Nc1ccc(F)c(Cl)c1)OCc1ccc(F)c(Oc2ccccc2)c1 [Compound 416]
LC50, MW: > 0.01%
//
MOLECULE: CC(C)C(=Nc1ccccc1C(F)(F)F)OCc1cccc(Oc2ccccc2)c1 [Compound 72]
LC50, MW: > 0.01%

====

Recorded LC50, MW, one value per entry.
System: Maize weevil [Sitophilus Zeamais (Motschulsky)]
ASSAY: Maize weevil insecticidal test
Format: in vivo
EXPERIMENTAL PARAMETERS: adult weevils, percent in solution; 48 hours

INPUT SMILES: CC(C)C(=Nc1ccc2c(c1)OCO2)OCc1ccnc(Oc2ccccc2)c1
LC50, MW: > 0.01%
//
INPUT SMILES: CC(C)C(=Nc1ccc(Cl)c(F)c1)OCc1ccc(F)c(Oc2ccc(F)cc2)c1
LC50, MW: 0.006%
//
INPUT SMILES: CC(C)C(=Nc1ccc(C(F)(F)F)cc1)OCc1cccc(Oc2ccccc2)n1
LC50, MW: 0.01%
//
INPUT SMILES: CC(C)C(=Nc1ccc2c(c1)OCO2)OCc1cccc(Oc2ccc(C(C)(C)C)cc2)c1
LC50, MW: > 0.01%

====

Test system: Cabbage Looper [Trichoplusia ni (Hubner)]
ASSAY: Cabbage looper insecticidal test
Format: in vivo
EXPERIMENTAL PARAMETERS: second-instar larvae, percent in solution; 3-5 days
Catalogue of LC50, CL values

COMPOUND: CC(C)(F)C(=Nc1ccc(F)c(Cl)c1)OCc1ccc(F)c(Oc2ccc(F)cc2)c1
U: %
RESULT OPERATOR: =
LC50, CL: 0.00006
//
COMPOUND: CC(C)(C)C(=Nc1ccc(F)c(Cl)c1)OCc1cccc(Oc2ccc(F)cc2)c1
U: %
RESULT OPERATOR: =
LC50, CL: 0.0023
//
COMPOUND: CC(C)C(=Nc1ccc(Br)c(Cl)c1)OCc1ccc(F)c(Oc2ccc(Cl)cc2)c1
U: %
RESULT OPERATOR: =
LC50, CL: 0.00092
//
COMPOUND: FC(F)(F)c1ccc(N=C(OCc2cccc(Oc3ccccc3)c2)C2CC2)c(Cl)c1
U: %
RESULT OPERATOR: <
LC50, CL: 0.01
//
COMPOUND: COc1ccccc1N=C(OCc1cccc(Oc2ccccc2)c1)C(C)C
U: %
RESULT OPERATOR: =
LC50, CL: 0.05
//
COMPOUND: COC(=O)c1ccc(N=C(OCc2cccc(Oc3ccccc3)c2)C(C)C)cc1
U: %
RESULT OPERATOR: =
LC50, CL: 0.009
//
COMPOUND: CC(C)C(=Nc1ccc(F)c(F)c1)OCc1cccc(Oc2ccc(F)cc2)c1
U: %
RESULT OPERATOR: =
LC50, CL: 0.001
//
COMPOUND: CC(C)C(=Nc1ccc(C(F)(F)F)cc1[N+](=O)[O-])OCc1ccc(F)c(Oc2ccccc2)c1
U: %
RESULT OPERATOR: =
LC50, CL: 0.00045
//
COMPOUND: CC(C)C(=Nc1ccc(Br)cc1)OCc1coc(Cc2ccccc2)c1
U: %
RESULT OPERATOR: =
LC50, CL: 0.0037
//
COMPOUND: CC(C)(F)C(=Nc1ccc(F)c(Cl)c1)OCc1cccc(Oc2ccc(F)cc2F)c1
U: %
RESULT OPERATOR: =
LC50, CL: 0.002
//
COMPOUND: CCC(C)C(=Nc1ccc(C(C)C)cc1)OCc1cccc(Oc2ccccc2)c1 (stereo not shown)
U: %
RESULT OPERATOR: =
LC50, CL: 0.0045
//
COMPOUND: CC(C)C(=Nc1ccc(F)c(Cl)c1)OCc1ccc(OCc2ccc(F)cc2)cc1
U: %
RESULT OPERATOR: =
LC50, CL: 0.023
//
COMPOUND: CC(C)C(=Nc1ccc(Br)c(Cl)c1)OCc1ccc(F)c(Oc2ccc(F)cc2)c1
U: %
RESULT OPERATOR: =
LC50, CL: 0.00029
//
COMPOUND: CC(C)C(=Nc1ccc2c(c1)OCO2)OCc1ccc(F)c(Oc2ccc(Cl)cc2)c1 [Compound 313]
U: %
RESULT OPERATOR: =
LC50, CL: 0.00025
//
COMPOUND: CC(C)C(=Nc1ccc(F)cc1)OCc1cccc(Oc2ccc(F)cc2)c1
U: %
RESULT OPERATOR: =
LC50, CL: 0.0004
//
COMPOUND: CCC(C)C(=Nc1ccc(F)c(Cl)c1)OCc1ccc(F)c(Oc2ccccc2)c1 (stereo not shown)
U: %
RESULT OPERATOR: =
LC50, CL: 0.001
//
COMPOUND: CCc1ccccc1N=C(OCc1cccc(Oc2ccc(F)cc2)c1)C(C)C
U: %
RESULT OPERATOR: >
LC50, CL: 0.1
//
COMPOUND: Cc1c(Cl)cccc1N=C(OCc1cccc(Oc2ccccc2)c1)C(Cl)Cl
U: %
RESULT OPERATOR: =
LC50, CL: 0.002
//
COMPOUND: CC(C)C(=Nc1cccc(C(F)(F)F)c1)OCc1cccc(Oc2cccc(F)c2)c1
U: %
RESULT OPERATOR: =
LC50, CL: 0.0012
//
COMPOUND: CC(C)C(=Nc1cccc(F)c1)OCc1ccc(F)c(Oc2ccc(F)cc2)c1
U: %
RESULT OPERATOR: =
LC50, CL: 0.0008
//
COMPOUND: CC(C)(C)C(=Nc1ccc(Cl)c(Cl)c1)OCc1cccc(Oc2ccccc2)c1
U: %
RESULT OPERATOR: =
LC50, CL: 0.01
//
COMPOUND: CCCc1ccc(N=C(OCc2ccc(F)c(Oc3ccc(F)cc3)c2)C(C)C)cc1
U: %
RESULT OPERATOR: =
LC50, CL: 0.002
//
COMPOUND: CCC(=Nc1ccc(F)c(F)c1)OCc1coc(Cc2ccccc2)c1
U: %
RESULT OPERATOR: >
LC50, CL: 0.1
//
COMPOUND: Cc1cccc(N=C(OCc2cccc(Oc3ccccc3)c2)C(C)C)c1C [Compound 148]
U: %
RESULT OPERATOR: =
LC50, CL: 0.0025
//
COMPOUND: CC(C)C(=Nc1ccc(F)c(Cl)c1)OCc1cccc(Cc2ccccc2)c1 [Compound 541]
U: %
RESULT OPERATOR: =
LC50, CL: 0.001
//
COMPOUND: CC(C)C(=Nc1cccc(I)c1)OCc1ccc(F)c(Oc2ccc(F)cc2)c1
U: %
RESULT OPERATOR: =
LC50, CL: 0.00008
//
COMPOUND: CC(C)C(=Nc1ccc(Br)c(C(F)(F)F)c1)OCc1ccc(F)c(Oc2ccc(F)cc2)c1
U: %
RESULT OPERATOR: =
LC50, CL: 0.00045
//
COMPOUND: CC(C)C(=Nc1ccc(F)c(Cl)c1)OCc1cccc(Oc2ccc(F)cc2)c1F
U: %
RESULT OPERATOR: =
LC50, CL: 0.0004
//
COMPOUND: CC(C)C(=Nc1ccc(C(F)(F)F)cc1)OCc1cccc(Oc2ccccc2)n1
U: %
RESULT OPERATOR: =
LC50, CL: 0.00025
//
COMPOUND: CC(C)C(=Nc1cc(C(F)(F)F)ccc1F)OCc1cccc(Oc2ccccc2)c1
U: %
RESULT OPERATOR: =
LC50, CL: 0.006
//
COMPOUND: CC(C)C(=Nc1cc(F)cc(F)c1)OCc1cccc(Oc2ccc(F)cc2)c1
U: %
RESULT OPERATOR: =
LC50, CL: 0.0006
//
COMPOUND: CC(C)C(=Nc1cccc(C(F)(F)F)c1)OCc1ccnc(Oc2ccc(Cl)cc2)c1
U: %
RESULT OPERATOR: =
LC50, CL: 0.0008
//
COMPOUND: CC(C)C(=Nc1ccccc1)OCc1cccc(Oc2ccccc2)c1
U: %
RESULT OPERATOR: =
LC50, CL: 0.018
//
COMPOUND: CC(Cl)C(=Nc1ccc(Cl)c(Cl)c1)OCc1cccc(Oc2ccccc2)c1 (stereo not shown)
U: %
RESULT OPERATOR: =
LC50, CL: 0.04
